- system_tested: Hexose transporter 1 (Plasmodium falciparum) (UniProt O97467)
- measurement_notes: ST_JUDE_LEISH: Cytotoxicity at 2uM final concentration against transgenic Leishmania Mexicana promastigotes LmPfHT that are glucose transport deficient and complemented with the Plasmodium falciparum hexose transporter. Activity is measured by DNA content using SYBR green in vitro
- Format: functional
value_type: inhibition (%)
Give bare numbers, in %.

Please look at the items below and tell me inhibition for each one, in order.
1. CC1(C)CCC(C)(C)c2c1ccc(C1CCN(CCCCNC(=O)c3ccc(-c4ccc(C#N)cc4)cc3)CC1)c2O
2. COc1cc2c(cc1C(F)(F)F)N(C(=O)Nc1cccc(-c3ccc(CN(C)C)cc3)c1)CC2
3. CN(C)c1cccc2c1nc(-c1ccco1)n2CC1CCCN1 (centres undefined)
4. O=c1cc(NCCCN(Cc2cc3c(Cl)cc(Cl)cc3[nH]2)Cc2cc3c(Cl)cc(Cl)cc3[nH]2)[nH]c2ccccc12
5. Fc1cccc(CNc2ncc(-c3ccsc3)c(-c3nccs3)n2)c1

Result:
1. 0.22
2. 10.2
3. -3.51
4. 9.4
5. 1.96

Please look at the items below and tell me inhibition for each one, in order.
1. NCCCNc1nc(Nc2ccc(C(F)(F)F)cc2F)c2c(=O)[nH]ccc2n1
2. N#Cc1cccc(C(=O)Nc2ccc(-c3cccc(CN4CCC(O)CC4)c3)cc2)c1
3. Fc1ccc(-c2cncc(Nc3ccncc3)n2)cc1
4. O=C(/C=C/c1ccc(Cl)c(Cl)c1)NCCCCCN1CCC(C(=O)Nc2cccc(Cl)c2)CC1

Result:
1. 3.63
2. 0.35
3. 7.91
4. 1.97

* * *

- system_tested: Hexose transporter 1 (Plasmodium falciparum)
- measurement_notes: ST_JUDE_LEISH: Cytotoxicity at 2uM final concentration against transgenic Leishmania Mexicana promastigotes LmPfHT that are glucose transport deficient and complemented with the Plasmodium falciparum hexose transporter. Activity is measured by DNA content using SYBR green in vitro
- Assay type: functional
Field: inhibition. Provide a value for each of the compounds that follow.
One number for each entry, in %.

Answered examples (10):
CCn1cc(CN2CCCC(C(=O)Nc3ccc(-c4nc5ccccc5[nH]4)cc3)C2)c(C)n1 (configuration not stated) :: 4.26
COc1ccc(C2NCCc3c2[nH]c2ccccc32)cc1CN1CCN(c2ccc(F)cc2)CC1 (configuration not stated) :: 0.27
COc1cc2nc(Nc3ccc4c(c3)OCCO4)nc(N)c2cc1OC :: -0.78
CC12CCC(C(=O)N(CC(O)Cn3c4ccc(Cl)cc4c4cc(Cl)ccc43)C1=O)C2(C)C (configuration not stated) :: 0.85
O=C(Cn1c(CCc2cccc(F)c2F)nc(=O)c2ccccc21)N(CCN1CCCC1)Cc1ccc(-c2ccc(C(F)(F)F)cc2)cc1 :: 0.38
O=S(=O)(Nc1cccc(CCN2CCC(N3CCCCC3)CC2)c1)c1cccc2cccnc12 :: 0.35
Cc1ccc(-n2c(Sc3ncnc4sccc34)nnc2N2CCCC2)cc1 :: 2.48
COCCCNC(=O)c1ccc(O)c(-c2cc(Cl)cc(Cl)c2)c1 :: -2.5
Cc1cccc(C(=O)Nc2ccnc(N3CCC(N(C)Cc4ccccc4)CC3)c2)c1 :: -0.98
CN1CCN(CC(=O)Nc2cccc(-c3ccc(-c4nc5cc(C(F)(F)F)ccc5[nH]4)s3)c2)CC1 :: 2.7

Please look at the items below and tell me inhibition for each one, in order.
1. COc1ccc(C2C(C(=O)Nc3ccc4c(c3)OCO4)c3cc(OC)c(OC)cc3C(=O)N2C)cc1 (configuration not stated)
2. Cc1cc(=NN=Cc2ccccc2F)c2cc(F)ccc2[nH]1
3. CCCc1ccc(NC(=O)c2ccc(CN3CCCN(Cc4cccc(O)c4)CC3)cc2)cc1
4. Cc1cc(N[C@@H](CC(C)C)C(=O)NCCc2ccccc2)nc(Nc2ccccc2)n1

Result:
1.73
3.14
2.61
5.37

Please look at the items below and tell me inhibition for each one, in order.
1. OCCOCn1cnc2cnc(N[C@H]3OC[C@H](O)[C@@H](O)[C@@H]3O)nc21
2. CNC(=O)c1cnc(Nc2ccc(N3CCN(C)CC3)cc2)nc1Nc1cccc([N+](=O)[O-])c1
3. COc1ccc(CN(C)Cc2ccc(NC(=O)c3cccc4c(=O)c5cccc(C)c5[nH]c34)cc2)cc1OC

Result:
[2.06, -0.17, 11.6]

Please look at the items below and tell me inhibition for each one, in order.
1. Cc1cc(C(=O)OCC(=O)Nc2c(C)n(C)n(-c3ccccc3)c2=O)c(C)n1-c1ccc(F)cc1
2. O=C(/C=C/c1ccc(Cl)cc1)NCCCCCN1CCCC(C(=O)Nc2cccc(Cl)c2)C1 (configuration not stated)
3. Cc1nc2ccc(Nc3nccc(-c4c(-c5cccc(NC(=O)c6c(F)cccc6F)c5)nn5ccccc45)n3)cc2nc1C

Result:
1: -1.81; 2: 2.1; 3: 4.37

Please look at the items below and tell me inhibition for each one, in order.
1. CC(=O)Nc1ccc(C(=O)Nc2cccc(-c3ccc(-c4nc5cc(C(F)(F)F)ccc5[nH]4)cc3)c2)cn1
2. O=C(Nc1cccc(C(F)(F)F)c1)c1cccc(S(=O)(=O)NCC2CCCN(Cc3ccccc3)C2)c1 (configuration not stated)
3. O=C(Nc1cccc(-c2csc(-c3ccccc3)n2)c1)c1cccs1
4. N#Cc1cccc(NC(=O)Nc2cccc(OC3CCN(Cc4ccccc4)CC3)c2)c1
5. CCc1c[nH]c2c(N3CCCS3(=O)=O)cc(C(=O)N[C@@H](Cc3ccccc3)[C@H](O)CNC(C)(C)c3cccc(C(F)(F)F)c3)cc12

Result:
[-0.8, 1.75, 2.57, 0.59, 0.86]

All figures here come from ChEMBL document CHEMBL3433997.
